target: PI3K p110β (Homo sapiens)
Sequence (P42338 whole entry): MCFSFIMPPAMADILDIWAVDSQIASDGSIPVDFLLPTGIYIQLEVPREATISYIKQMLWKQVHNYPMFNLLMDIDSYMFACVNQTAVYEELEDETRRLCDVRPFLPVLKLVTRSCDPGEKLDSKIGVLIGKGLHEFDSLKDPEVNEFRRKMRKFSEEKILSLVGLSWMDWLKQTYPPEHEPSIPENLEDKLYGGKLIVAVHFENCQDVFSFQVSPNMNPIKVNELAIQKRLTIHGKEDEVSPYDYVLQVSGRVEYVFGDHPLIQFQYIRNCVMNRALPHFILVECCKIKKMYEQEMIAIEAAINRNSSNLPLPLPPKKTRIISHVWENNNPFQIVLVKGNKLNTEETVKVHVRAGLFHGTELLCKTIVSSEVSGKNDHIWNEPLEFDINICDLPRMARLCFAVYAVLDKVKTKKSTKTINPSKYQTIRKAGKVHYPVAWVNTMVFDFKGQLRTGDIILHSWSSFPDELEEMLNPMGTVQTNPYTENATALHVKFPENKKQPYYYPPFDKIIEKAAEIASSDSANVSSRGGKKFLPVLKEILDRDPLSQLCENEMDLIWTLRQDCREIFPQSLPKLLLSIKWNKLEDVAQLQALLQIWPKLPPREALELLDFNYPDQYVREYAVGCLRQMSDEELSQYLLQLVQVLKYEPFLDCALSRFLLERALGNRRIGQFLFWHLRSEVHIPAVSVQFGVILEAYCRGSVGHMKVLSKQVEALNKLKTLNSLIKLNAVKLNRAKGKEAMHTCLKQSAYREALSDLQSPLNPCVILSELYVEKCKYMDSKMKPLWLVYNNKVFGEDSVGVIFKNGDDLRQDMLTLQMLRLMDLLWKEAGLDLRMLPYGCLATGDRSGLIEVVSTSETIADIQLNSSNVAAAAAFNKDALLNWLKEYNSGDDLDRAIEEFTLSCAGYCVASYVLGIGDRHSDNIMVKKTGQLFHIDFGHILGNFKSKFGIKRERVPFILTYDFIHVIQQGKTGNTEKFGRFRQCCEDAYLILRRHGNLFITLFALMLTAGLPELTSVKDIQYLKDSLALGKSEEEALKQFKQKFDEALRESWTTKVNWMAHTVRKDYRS
Sequence (P27986 whole entry partner): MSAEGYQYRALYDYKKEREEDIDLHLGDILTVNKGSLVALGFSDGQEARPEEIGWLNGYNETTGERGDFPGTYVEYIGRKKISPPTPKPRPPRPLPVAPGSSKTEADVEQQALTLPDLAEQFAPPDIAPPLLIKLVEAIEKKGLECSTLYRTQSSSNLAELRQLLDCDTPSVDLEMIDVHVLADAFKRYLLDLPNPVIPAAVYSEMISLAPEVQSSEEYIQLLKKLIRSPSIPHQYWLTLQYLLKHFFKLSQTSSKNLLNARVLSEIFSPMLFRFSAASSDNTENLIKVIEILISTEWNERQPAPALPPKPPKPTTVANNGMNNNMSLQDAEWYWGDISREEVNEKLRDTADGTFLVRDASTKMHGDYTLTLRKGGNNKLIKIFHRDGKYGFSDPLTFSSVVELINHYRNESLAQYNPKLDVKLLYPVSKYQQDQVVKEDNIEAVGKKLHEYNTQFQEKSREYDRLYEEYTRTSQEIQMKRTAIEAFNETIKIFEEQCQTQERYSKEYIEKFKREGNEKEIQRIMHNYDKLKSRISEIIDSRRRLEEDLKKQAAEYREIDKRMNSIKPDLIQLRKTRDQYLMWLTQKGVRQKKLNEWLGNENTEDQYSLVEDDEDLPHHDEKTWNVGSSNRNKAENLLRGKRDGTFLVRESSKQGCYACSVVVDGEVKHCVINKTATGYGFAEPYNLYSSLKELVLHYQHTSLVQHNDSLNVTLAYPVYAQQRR
Measured endpoint: IC50

>  <Molecular string>
CS(=O)(=O)CCNCc1cnc2oc3c(N4CCOCC4)nc(-c4cccc5[nH]ccc45)nc3c2c1

>  <Assay value>
≤ 500 nM

$$$$
>  <Molecular string>
c1cc(-c2nc(N3CCOCC3)c3oc4ncc(CN5CCSC5)cc4c3n2)c2cc[nH]c2c1

>  <Assay value>
≤ 500 nM

$$$$
>  <Molecular string>
O=S1(=O)CC2(CN(Cc3cnc4oc5c(N6CCOCC6)nc(-c6cccc7[nH]ccc67)nc5c4c3)C2)C1

>  <Assay value>
≤ 500 nM

$$$$

====

test: Plasma PK of compound K of WO 2011/021038 in male Balb/c mice; format: in vivo, mouse; conditions: IV, 3 mg/kg; male Balb/c mouse plasma

>  <Molecular string>
c1cc(-c2nc(N3CCOCC3)c3oc4ncc(CN5CCOCC5)cc4c3n2)c2cc[nH]c2c1

>  <AUC(0-inf)>
2690 ng·h/mL

$$$$

The values you see were collected from patent US10442815B2.
